runDescription: Photochromic characteristics of cast polymethyl methacrylate film (coloration under mercury lamp, fading)
Assay type: physicochemical
conditionParameters: PMMA film, 1.0×10^-4 mol/g, 0.1 mm; mercury lamp 60 seconds, 35° C.; absorbance at λmax
quantityMeasured: ε (60 seconds)-ε (0 second)

INSERT INTO assay_data (molecule, reportedresult) VALUES
  ('COC(=O)CCCCN1c2cc3[nH]ccc3cc2C2(CC3CCC2C3)C12C=Nc1cc(-c3ccccc3)c3ncccc3c1O2 (centres unmarked)', 1.4),
  ('N#CCN1c2[nH]ccc2C2(CCCCCC2)C12C=Nc1cc(C#N)c3ccccc3c1O2 (centres unmarked)', 1.4),
  ('CN1c2ccccc2C2(CC3CCC2C3)C12C=Nc1ccc3cccnc3c1O2 (centres unmarked)', 1.4),
  ('CN(C)c1cc2c(c3cc4cc[nH]c4cc13)OC1(C=N2)N(C)c2ncc(Cc3ccccc3)cc2C1(C)C (centres unmarked)', 1.4),
  ('CN1c2ccccc2C2(CCCCC2)C12C=Nc1ccc3cnccc3c1O2 (centres unmarked)', 1.8),
  ('CN(C)c1cc2c(c3ccccc13)OC1(C=N2)N(C)c2ccccc2C12CC1CCC2C1 (centres unmarked)', 1.3),
  ('CN1c2c(F)cc(F)cc2C(C)(C)C12C=Nc1ccc3cnccc3c1O2 (centres unmarked)', 1.5),
  ('Cc1cc2ccncc2c2c1N=CC1(O2)N(C(C)C)c2ccc(Cl)cc2C12CCCC2 (centres unmarked)', 1.7);

* * *

runDescription: Photochromic characteristics of cast polymethyl methacrylate film (coloration under mercury lamp, fading)
Type: physicochemical
conditionParameters: PMMA film, 1.0×10^-4 mol/g, 0.1 mm; mercury lamp 60 seconds, 35° C.
quantityMeasured: λ max (maximum absorption wavelength of the colored film)

INSERT INTO results (molecule, reportedresult) VALUES
  ('COC(=O)c1cc2ncccc2c2c1N=CC1(O2)N(C)c2c(cc(C(F)(F)F)c(C(F)(F)F)c2C(F)(F)F)C1(C)C (stereo not drawn) [Compound 51]', 609),
  ('N#CCN1c2[nH]ccc2C2(CCCCCC2)C12C=Nc1cc(C#N)c3ccccc3c1O2 (stereo not drawn) [Compound 17]', 606),
  ('CN1c2c(F)cc(F)cc2C2(CCCCC2)C12C=Nc1ccc3cnccc3c1O2 (stereo not drawn) [Compound 27]', 613),
  ('CN(C)c1cc2c(c3ccccc13)OC1(C=N2)N(C)c2ccccc2C12CC1CCC2C1 (stereo not drawn) [Compound 3]', 603),
  ('CN1c2ccccc2C2(CCCCC2)C12C=Nc1ccc3ccccc3c1O2 (stereo not drawn) [Compound 1]', 601),
  ('Cc1cc2c(c3ccnc(C)c13)OC1(C=N2)N(C(C)C)c2cc(Br)ccc2C12CCCCCC2 (stereo not drawn) [Compound 29]', 602),
  ('CN1c2ccc(Cl)cc2C2(C3CC4CC(C3)CC2C4)C12C=Nc1cc(N3CCCCC3)c3ncccc3c1O2 (stereo not drawn) [Compound 9]', 605),
  ('CN1c2ccccc2C2(CC3CCC2C3)C12C=Nc1ccc3cccnc3c1O2 (stereo not drawn) [Compound 2]', 603),
  ('COC(=O)c1cc2c(c3cc[nH]c13)OC1(C=N2)N(C)c2[nH]ccc2C12CCCCC2 (stereo not drawn) [Compound 20]', 603);

* * *

runDescription: Photochromic characteristics of cast polymethyl methacrylate film (coloration under mercury lamp, fading)
Format: physicochemical
conditionParameters: PMMA film, 1.0×10^-4 mol/g, 0.1 mm; mercury lamp 60 seconds, 35° C.
quantityMeasured: λ max (maximum absorption wavelength of the colored film)

INSERT INTO results (compound, reportedresult) VALUES
  ('COC(=O)CN1c2cc(Cl)ccc2C2(C3CC4CC(C3)CC2C4)C12C=Nc1ccc3cc4ccc(Br)cc4cc3c1O2 (stereo not shown)', 609),
  ('COC(=O)CN1c2ccc(N(C)C)cc2C2(CCCCC2)C12C=Nc1cc(Br)c3ccccc3c1O2 (stereo not shown)', 607),
  ('CN1c2ccccc2C2(CCCCC2)C12C=Nc1cc(Cc3ccccc3)c3ccccc3c1O2 (stereo not shown)', 611),
  ('COC(=O)CN1c2cc3ccc([N+](=O)[O-])cc3cc2C2(CC3CCC2C3)C12C=Nc1c(C(F)(F)F)cc3ncccc3c1O2 (stereo not shown)', 606),
  ('CCCN1c2ccc(C(F)(F)F)cc2C2(C3CC4CC(C3)CC2C4)C12C=Nc1ccc3ccccc3c1O2 (stereo not shown)', 605),
  ('CN1c2cc(N3CCCC3)ccc2C(C)(C)C12C=Nc1c(C(F)(F)F)cc3ncccc3c1O2 (stereo not shown)', 600),
  ('CC1(C)c2cc3cc(-c4ccsc4)oc3cc2N(CCC#N)C12C=Nc1c(N)cc3ncccc3c1O2 (stereo not shown)', 605),
  ('CCCCN1c2cc(CC)ccc2C2(CC3CCC2C3)C12C=Nc1c(N)cc3occc3c1O2 (stereo not shown)', 605),
  ('COc1ccc2c(c1)C1(CCCCC1)C1(C=Nc3ccc4cc5[nH]ccc5cc4c3O1)N2C (stereo not shown)', 607),
  ('Cc1cc2ccncc2c2c1N=CC1(O2)N(C(C)C)c2ccc(Cl)cc2C12CCCC2 (stereo not shown)', 595),
  ('COc1cc2c(c3ccccc13)OC1(C=N2)N(c2ccccc2)c2ccccc2C12CCCC2 (stereo not shown)', 606),
  ('CN1c2cc3occc3cc2C2(CC3CCC2C3)C12C=Nc1ccc3ccccc3c1O2 (stereo not shown)', 603),
  ('CN1c2ccccc2C2(CCCCC2)C12C=Nc1ccc3cnccc3c1O2 (stereo not shown)', 619),
  ('CCC1(CC)c2cc(O)cnc2N(C)C12C=Nc1ccc3ncccc3c1O2 (stereo not shown)', 598),
  ('CN1c2ccc([N+](=O)[O-])cc2C2(CCCCC2)C12C=Nc1ccc3ccccc3c1O2 (stereo not shown)', 610),
  ('CN1c2occ(C#N)c2C(C)(C)C12C=Nc1cc(Cc3ccccc3)c3ncc(Br)cc3c1O2 (stereo not shown)', 610);

* * *

runDescription: Photochromic characteristics of cast polymethyl methacrylate film (coloration under mercury lamp, fading)
Assay type: physicochemical
conditionParameters: PMMA film, 1.0×10^-4 mol/g, 0.1 mm; after 60 seconds' irradiation, 35° C.
quantityMeasured: t1/2 (half-value period of absorbance after irradiation) (s)

INSERT INTO measurements (compound, valueunits, reportedresult) VALUES
  ('CN1c2cc3occc3cc2C2(CC3CCC2C3)C12C=Nc1ccc3ccccc3c1O2 (stereo not shown)', 's', 18),
  ('COC(=O)c1cc2c(c3cc[nH]c13)OC1(C=N2)N(C)c2[nH]ccc2C12CCCCC2 (stereo not shown)', 's', 17),
  ('COC(=O)CCCCN1c2cc3[nH]ccc3cc2C2(CC3CCC2C3)C12C=Nc1cc(-c3ccccc3)c3ncccc3c1O2 (stereo not shown)', 's', 18),
  ('COC(=O)CN1c2ccc(N(C)C)cc2C2(CCCCC2)C12C=Nc1cc(Br)c3ccccc3c1O2 (stereo not shown)', 's', 17);

* * *

runDescription: Photochromic characteristics of cast polymethyl methacrylate film (coloration under mercury lamp, fading)
Type: physicochemical
conditionParameters: PMMA film, 1.0×10^-4 mol/g, 0.1 mm; mercury lamp 60 seconds, 35° C.
quantityMeasured: λ max (maximum absorption wavelength of the colored film)

INSERT INTO measurements (compound, reportedresult) VALUES
  ('CCC1(CC)c2cc(C(F)(F)F)ccc2N(Cc2ccccc2)C12C=Nc1cc(Cc3ccccc3)c3c(C)cncc3c1O2 (stereo not shown)', 589),
  ('CCC1(C)c2cc(OC)ccc2N(Cc2ccccc2)C12C=Nc1cc(-c3ccccc3)c3c(OC)nccc3c1O2 (stereo not shown)', 619),
  ('CN(C)c1cc2c(c3cc4cc[nH]c4cc13)OC1(C=N2)N(C)c2ncc(Cc3ccccc3)cc2C1(C)C (stereo not shown)', 601),
  ('CCC1(CC)c2ccc(N(C)C)cc2N(CCc2ccccc2)C12C=Nc1c(Cl)cc3cc(OC)ncc3c1O2 (stereo not shown)', 590),
  ('N#Cc1cnc2ccc3c(c2c1)OC1(C=N3)N(CCc2ccccc2)c2ccccc2C12CCCCC2 (stereo not shown)', 601),
  ('CN1c2c(F)cc(F)cc2C(C)(C)C12C=Nc1ccc3cnccc3c1O2 (stereo not shown)', 609),
  ('Cc1cc2ccncc2c2c1N=CC1(O2)N(C(C)C)c2ccc(Cl)cc2C1(C)C (stereo not shown)', 590);

* * *

runDescription: Photochromic characteristics of cast polymethyl methacrylate film (coloration under mercury lamp, fading)
Format: physicochemical
conditionParameters: PMMA film, 1.0×10^-4 mol/g, 0.1 mm; mercury lamp 60 seconds, 35° C.; absorbance at λmax
quantityMeasured: ε (60 seconds)-ε (0 second)

INSERT INTO results (compound, reportedresult) VALUES
  ('COC(=O)CN1c2ccc(N(C)C)cc2C2(CCCCC2)C12C=Nc1cc(Br)c3ccccc3c1O2 (stereo not shown)', 1.3),
  ('CN1c2ccccc2C2(CCCCC2)C12C=Nc1ccc3ccccc3c1O2 (stereo not shown)', 1.4),
  ('COC(=O)CN1c2cc3ccc([N+](=O)[O-])cc3cc2C2(CC3CCC2C3)C12C=Nc1c(C(F)(F)F)cc3ncccc3c1O2 (stereo not shown)', 1.4),
  ('COC(=O)c1cc2c(c3cc[nH]c13)OC1(C=N2)N(C)c2[nH]ccc2C12CCCCC2 (stereo not shown)', 1.4),
  ('COC(=O)c1ccc2c(c1)C(C)(C)C1(C=Nc3ccc4ncccc4c3O1)N2C (stereo not shown)', 1.5),
  ('CN1c2occ(C#N)c2C(C)(C)C12C=Nc1cc(Cc3ccccc3)c3ncc(Br)cc3c1O2 (stereo not shown)', 1.4),
  ('CN1c2ccccc2C(C)(C)C12C=Nc1ccc3cnccc3c1O2 (stereo not shown)', 1.7),
  ('Cc1cc2c(c3ccnc(C)c13)OC1(C=N2)N(C(C)C)c2cc(Br)ccc2C12CCCCCC2 (stereo not shown)', 1.6),
  ('N#Cc1cnc2ccc3c(c2c1)OC1(C=N3)N(CCc2ccccc2)c2ccccc2C12CCCCC2 (stereo not shown)', 1.8),
  ('CC1(C)c2cc3cc(-c4ccsc4)oc3cc2N(CCC#N)C12C=Nc1c(N)cc3ncccc3c1O2 (stereo not shown)', 1.5),
  ('COC(=O)CN1c2cc(Cl)ccc2C2(C3CC4CC(C3)CC2C4)C12C=Nc1ccc3cc4ccc(Br)cc4cc3c1O2 (stereo not shown)', 1.2),
  ('CN1c2ccccc2C2(CCCCC2)C12C=Nc1cc(Cc3ccccc3)c3ccccc3c1O2 (stereo not shown)', 1.4),
  ('CN1c2cc(N3CCCC3)ccc2C(C)(C)C12C=Nc1c(C(F)(F)F)cc3ncccc3c1O2 (stereo not shown)', 1.5),
  ('CN1c2ccc([N+](=O)[O-])cc2C2(CCCCC2)C12C=Nc1ccc3ccccc3c1O2 (stereo not shown)', 1.2),
  ('CCC1(C)c2cc(OC)ccc2N(Cc2ccccc2)C12C=Nc1cc(-c3ccccc3)c3c(OC)nccc3c1O2 (stereo not shown)', 1.7),
  ('COC(=O)c1cc2ncccc2c2c1N=CC1(O2)N(C)c2c(cc(C(F)(F)F)c(C(F)(F)F)c2C(F)(F)F)C1(C)C (stereo not shown)', 1.4);
